Recorded hepatocyte CLint by entry
- protocol_details: Metabolic stability in human hepatocytes measured per million cells
- Assay type: ADME, cell-based, Hepatocyte
- condition_parameters: read-out: CLH
value_type: hepatocyte CLint (µL/min/1e6 cells)

• Cc1nc2nc(C)c(CCNC(=O)c3cnc(-c4ccc(CN5CCOCC5)cc4)cn3)c(C)n2n1 = 2.5
• Cc1nc2nc(C)c(C[C@@H]3CCN(c4cnc(-c5ccc(CN6CCOCC6)cc5)cn4)C3)c(C)n2n1 = 3.4
• Cc1nc2nc(C)c(C[C@@H]3CCN(c4cnc(-c5ccc(CN6CCN(C)CC6)cc5)cn4)C3)c(C)n2n1 = 1.9

====

- protocol_details: Clearance in Beagle dog at 1 mg/kg, iv
- Type: ADME, organism-based, Canis lupus familiaris
- condition_parameters: in vivo
value_type: clearance (mL/min/kg)

- Cc1nc2nc(C)c(O[C@@H]3CCN(c4ccc(-c5ccc(CN6CCOCC6)nn5)cc4)C3)c(C)n2n1: 14

====

- protocol_details: Oral bioavailability in Wistar rat at 5 mg/kg
- Format: ADME, organism-based
- condition_parameters: in vivo
value_type: bioavailability (%)

* Cc1nc2nc(C)c(O[C@@H]3CCN(c4ccc(-c5ccc(CN6CCOCC6)nn5)cc4)C3)c(C)n2n1 | 106

====

- protocol_details: Plasma protein binding in rat assessed as free fraction
- Type: ADME, cell-free
value_type: fraction unbound

• Cc1nc2nc(C)c(O[C@@H]3CCN(c4ccc(-c5ccc(CN6CCOCC6)nn5)cc4)C3)c(C)n2n1 = 0.3

====

Recorded bioavailability by entry
- protocol_details: Oral bioavailability in rat
- Format: ADME, organism-based
- condition_parameters: in vivo
value_type: bioavailability

* Cc1nc2nc(C)c(CCNC(=O)c3cnc(-c4ccc(CN5CCOCC5)cc4)cn3)c(C)n2n1 | 34%
* Cc1nc2nc(C)c(C[C@@H]3CCN(c4cnc(-c5ccc(CN6CCOCC6)cc5)cn4)C3)c(C)n2n1 | 47%
* Cc1nc2nc(C)c(C[C@@H]3CCN(c4cnc(-c5ccc(CN6CCN(C)CC6)cc5)cn4)C3)c(C)n2n1 | 61%

====

- protocol_details: Lipophilicity, logD of the compound at pH 7.4
- Type: physicochemical
- condition_parameters: buffer
value_type: logD

- Cc1nc2nc(C)c(C[C@@H]3CCN(c4cnc(-c5ccc(CN6CCOCC6)cc5)cn4)C3)c(C)n2n1: 2.6
- Cc1nc2nc(C)c(CCNC(=O)c3cnc(-c4ccc(CN5CCOCC5)cc4)cn3)c(C)n2n1: 1.8
- Cc1nc2nc(C)c(O[C@@H]3CCN(c4ccc(-c5ccc(CN6CCOCC6)nn5)cc4)C3)c(C)n2n1: 1.8
- Cc1nc2nc(C)c(C[C@@H]3CCN(c4ccc(-c5ccc(CN6CCOCC6)nn5)cc4)C3)c(C)n2n1: 2.3
- Cc1nc2nc(C)c(C[C@@H]3CCN(c4ccc(-c5cnc(CN6CCOCC6)cn5)cc4)C3)c(C)n2n1: 2.7
- Cc1nc2ncnn2c(C)c1CCC(=O)Nc1nnc(-c2ccc(C(C)C)cc2)s1: 3.7
- Cc1nc2nc(C)c(CCNC(=O)c3cnc(-c4ccccc4)cn3)c(C)n2n1: 2.4
- Cc1nc2nc(C)c(CCC(=O)Nc3nnc(-c4ccccc4)s3)c(C)n2n1: 2.8
- Cc1nc2nc(C)c(C[C@@H]3CCN(c4cnc(-c5ccc(CN6CCN(C)CC6)cc5)cn4)C3)c(C)n2n1: 2

====

- protocol_details: Clearance in Wistar rat at 2 mg/kg, iv
- Format: ADME, organism-based
- condition_parameters: in vivo
value_type: clearance (mL/min/kg)

• Cc1nc2nc(C)c(O[C@@H]3CCN(c4ccc(-c5ccc(CN6CCOCC6)nn5)cc4)C3)c(C)n2n1 = 15

====

Recorded hepatocyte CLint by entry
- protocol_details: Metabolic stability in rat hepatocytes measured per million cells
- Type: ADME, cell-based, Hepatocyte
- condition_parameters: read-out: CLH
value_type: hepatocyte CLint (µL/min/1e6 cells)

- Cc1nc2nc(C)c(C[C@@H]3CCN(c4cnc(-c5ccc(CN6CCOCC6)cc5)cn4)C3)c(C)n2n1: 13
- Cc1nc2nc(C)c(CCNC(=O)c3cnc(-c4ccc(CN5CCOCC5)cc4)cn3)c(C)n2n1: 17

====

Observed IC50, system Voltage-gated inwardly rectifying potassium channel KCNH2 (Homo sapiens, UniProt Q12809).
value_type: IC50

* Cc1nc2nc(C)c(O[C@@H]3CCN(c4ccc(-c5ccc(CN6CCOCC6)nn5)cc4)C3)c(C)n2n1 | 29 µM
* Cc1nc2nc(C)c(C[C@@H]3CCN(c4ccc(-c5ccc(CN6CCOCC6)nn5)cc4)C3)c(C)n2n1 | 13 µM
* Cc1nc2nc(C)c(C[C@@H]3CCN(c4ccc(-c5ccc(CN6CCN(C)CC6)nn5)cc4)C3)c(C)n2n1 | > 33 µM
* CC(=O)N1CCN(Cc2ccc(-c3ccc(N4CC[C@@H](Oc5c(C)nc6nc(C)nn6c5C)C4)cc3)nn2)CC1 | > 33 µM

====

- protocol_details: Thermodynamic solubility of the compound in FaSSIF using crystalline form of sample at pH 6.5
- Assay type: physicochemical
- condition_parameters: read-out: Therm_solubility
value_type: solubility thermodynamic (µM)

- Cc1nc2nc(C)c(O[C@@H]3CCN(c4ccc(-c5ccc(CN6CCOCC6)nn5)cc4)C3)c(C)n2n1: 839

====

- protocol_details: Metabolic stability in dog hepatocytes assessed as intrinsic clearance measured per million cells
- Format: ADME, cell-based, Canis lupus familiaris, Hepatocyte
- condition_parameters: read-out: CLH
value_type: hepatocyte CLint (µL/min/1e6 cells)

* Cc1nc2nc(C)c(O[C@@H]3CCN(c4ccc(-c5ccc(CN6CCOCC6)nn5)cc4)C3)c(C)n2n1 | 3.3

====

- protocol_details: Aqueous solubility of the compound in pH 7.4 buffer
- Assay type: physicochemical
Recorded solubility by entry
value_type: solubility

* Cc1nc2nc(C)c(CCNC(=O)c3cnc(-c4ccc(CN5CCOCC5)cc4)cn3)c(C)n2n1 | 138 µM
* Cc1nc2nc(C)c(CCNC(=O)c3cnc(-c4ccccc4)cn3)c(C)n2n1 | 3 µM
* Cc1nc2nc(C)c(CCNC(=O)c3cnc(-c4ccc([C@H]5COCCN5C)cc4)cn3)c(C)n2n1 | 224 µM
* Cc1nc2nc(C)c(CCNC(=O)c3ccc(-c4ccccc4)cc3)c(C)n2n1 | 2 µM
* Cc1nc2nc(C)c(CCNC(=O)c3cnc(-c4ccc([C@@H]5COCCN5C)cc4)cn3)c(C)n2n1 | > 300 µM

====

- protocol_details: Metabolic stability in human hepatocytes assessed as intrinsic clearance measured per million cells
- Type: ADME, cell-based, Hepatocyte
- condition_parameters: read-out: CLH
value_type: hepatocyte CLint (µL/min/1e6 cells)

- Cc1nc2nc(C)c(O[C@@H]3CCN(c4ccc(-c5ccc(CN6CCOCC6)nn5)cc4)C3)c(C)n2n1: 1.9

====

- protocol_details: Plasma protein binding in dog assessed as free fraction
- Type: ADME, cell-free, Canis lupus familiaris
value_type: fraction unbound

- Cc1nc2nc(C)c(O[C@@H]3CCN(c4ccc(-c5ccc(CN6CCOCC6)nn5)cc4)C3)c(C)n2n1: 0.39

====

- protocol_details: Efflux ratio of apparent permeability basolateral to apical side over apical to basolateral side in human Caco-2 cells
- Type: ADME, cell-based
value_type: efflux ratio

• Cc1nc2nc(C)c(C[C@@H]3CCN(c4cnc(-c5ccc(CN6CCOCC6)cc5)cn4)C3)c(C)n2n1 = 1.1

====

Observed IC50, system Voltage-gated inwardly rectifying potassium channel KCNH2 (Homo sapiens, UniProt Q12809).
value_type: IC50

• Cc1nc2nc(C)c(O[C@@H]3CCN(c4ccc(-c5ccc(CN6CCN(C)CC6)nn5)cc4)C3)c(C)n2n1 = > 33 µM
• Cc1nc2nc(C)c(C[C@@H]3CCN(c4cnc(-c5ccc(CN6CCOCC6)cc5)cn4)C3)c(C)n2n1 = 1.8 µM
• Cc1nc2nc(C)c(C[C@@H]3CCN(c4cnc(-c5ccc(CN6CCN(C)CC6)cc5)cn4)C3)c(C)n2n1 = > 24 µM
• Cc1nc2nc(C)c(CCNC(=O)c3cnc(-c4ccc(CN5CCOCC5)cc4)cn3)c(C)n2n1 = 24 µM

====

- protocol_details: Lipophilicity, logD of the compound at pH 7.4
- Type: physicochemical
- condition_parameters: buffer
Recorded logD by entry
value_type: logD

• Cc1nc2nc(C)c(CCNC(=O)c3cnc(-c4ccc([C@@H]5COCCN5C)cc4)cn3)c(C)n2n1 = 1.9
• Cc1nc2ncnn2c(C)c1CCC(=O)Nc1nnc(-c2ccccc2)s1 = 2.5
• Cc1nc2nc(C)c(CCNC(=O)c3ccc(-c4ccccc4)cc3)c(C)n2n1 = 3.4
• Cc1nc2nc(C)c(O[C@@H]3CCN(c4ccc(-c5ccc(CN6CCN(C)CC6)nn5)cc4)C3)c(C)n2n1 = 1.4
• Cc1nc2nc(C)c(CCNC(=O)c3nnc(-c4ccccc4)s3)c(C)n2n1 = 2.5
• Cc1nc2nc(C)c(CCNC(=O)c3cnc(-c4ccc([C@H]5COCCN5C)cc4)cn3)c(C)n2n1 = 1.9
• CC(=O)N1CCN(Cc2ccc(-c3ccc(N4CC[C@@H](Oc5c(C)nc6nc(C)nn6c5C)C4)cc3)nn2)CC1 = 1.4
• Cc1nc2nc(C)c(C[C@@H]3CCN(c4ccc(-c5ccc(CN6CCN(C)CC6)nn5)cc4)C3)c(C)n2n1 = 1.8
